Tested on: 786-0 renal
Experiment: NCI tumour cell line growth inhibition, 48 h
parameter.measured: TGI

molecule | result
CC1SC(c2c(Cl)cccc2Cl)N(NC(=O)c2[nH]c3ccc(F)cc3c2-c2ccccc2)C1=O (centres undefined) | 4.44 µM
O=C1/C(=C/c2ccccc2S)N=C(c2ccccc2)N1c1nc2ccc(Sc3ccccc3)cc2[nH]1 | 87.1 µM
Cc1ccc(-c2c(N)[n+]([O-])c3ccccc3[n+]2[O-])cc1 | 28.6 µM
CN(C)NC(=S)Nc1ccccc1Br | > 100 µM
CCOP(=O)(OCC)C1C(CO)OC(n2ccc(=O)[nH]c2=O)C1O (centres undefined) | > 100 µM
COc1cc(/C=C2\C(=O)N(C(=O)Cc3ccccc3)N=C2C)ccc1O | > 100 µM
CN(C)S(=O)(=O)c1ccc(NC(=O)COC(=O)c2ccc(S(=O)(=O)N3CCCCC3)cc2)cc1 | > 100 µM
C[C@@H](C(=O)Nc1ccc(Cl)cc1)C1CCC(c2ccnc3ccc(F)cc23)CC1 (some centres undefined) | > 100 µM
O=C(Nc1cccc2cnccc12)c1cc2c(cc1Cl)Sc1nccn1S2(=O)=O | 33.1 µM
CC(C)C(=O)Nc1nc2nc[nH]c2c(=O)[nH]1 | > 100 µM
Cc1ccncc1.[O]=[Ge].[O]=[Ge].[O]=[Ge].[O]=[Ge].[O]=[Ge].[O]=[Ge][OH].[O]=[Ge][OH] | > 100 µM
CC1=NOC(=O)/C1=C/c1ccccc1O | > 100 µM
CCC12C[N+]3([O-])CCc4c([nH]c5ccccc45)C(C(=O)OC)(c4cc5c(cc4OC)N(C)C4C(O)(C(=O)OC)C(OC(C)=O)C6(CC)C=CCN7CCC54C76)CC(C3)C1O2 (centres undefined) | 7.95 µM
CCN(CC)c1ccc(C(=C2C=CC(=[N+](CC)Cc3cccc(S(=O)(=O)O)c3)C=C2)c2ccc(N(CC)Cc3cccc(S(=O)(=O)O)c3)cc2)cc1 | 98.9 µM
COc1ccc(-c2cc(=O)c3cc4c(cc3[nH]2)OCO4)c(OC)c1OC | > 100 µM
CCCCCCCCCC[C@H](O)[C@H]1CC[C@H]([C@H]2CC[C@H]([C@H](O)CC[C@H](O)CCCCCCC[C@@H](O)CC3=C[C@H](C)OC3=O)O2)O1 | > 100 µM
CC(C)NC[C@@H](C(=O)N1CCN(c2ncnc3c2[C@H](C)C[C@H]3O)CC1)c1ccc(Cl)cc1 | > 100 µM
NC(CSCc1ccccc1)C(=O)O (centres undefined) | > 100 µM
O=C1OC(=O)C(c2c[nH]c3ccccc23)=C1c1c[nH]c2ccccc12 | > 25 µM
